MEASUREMENT NOTES: Oral bioavailability in mouse at 10 mg/kg
Format: ADME, organism-based
CONDITION DETAILS: in vivo
ASSAY READOUT: bioavailability (%)
Give just the number in %; leave the unit off.

# compound COc1cc(C(=O)N2CCC(N3CCCC3)CC2)ccc1Nc1ncc2c(n1)N(C)c1ccccc1C(=O)N2C ; its bioavailability = 86.6

====

MEASUREMENT NOTES: AUC (0 to infinity) in mouse at 1 mg/kg, iv
Format: ADME, organism-based
Set-up: time infinity, dose 1 mg/kg, route intravenous
CONDITION DETAILS: plasma
ASSAY READOUT: AUC(0-inf) (ng·h/mL)
Numeric only. Scale: ng·h/mL

Looking up COc1cc(C(=O)N2CCC(N3CCCC3)CC2)ccc1Nc1ncc2c(n1)N(C)c1ccccc1C(=O)N2C , I found its AUC(0-inf) recorded as 907

====

MEASUREMENT NOTES: AUC (0 to infinity) in rat at 2 mg/kg, po
Assay type: ADME, organism-based
Set-up: time infinity, dose 2 mg/kg, route oral
CONDITION DETAILS: plasma
ASSAY READOUT: AUC(0-inf) (ng·h/mL)
Write the answer as a number in ng·h/mL, unit excluded.

Entry CCOc1cc(N2CCC(O)CC2)ccc1Nc1ncc2c(n1)N(C)c1ccccc1C(=O)N2C , AUC(0-inf) reported as 903

====

MEASUREMENT NOTES: Plasma clearance in mouse at 1 mg/kg, iv
Format: ADME, organism-based
Set-up: dose 1 mg/kg, route intravenous
ASSAY READOUT: clearance (mL/min/kg)
Provide only the numeric value, understood in mL/min/kg.

Record summary for COc1cc(C(=O)N2CCC(N3CCCC3)CC2)ccc1Nc1ncc2c(n1)N(C)c1ccccc1C(=O)N2C : reported clearance = 18.4

====

MEASUREMENT NOTES: Plasma clearance in rat at 2 mg/kg, po
Format: ADME, organism-based
Design: dose 2 mg/kg, route oral
ASSAY READOUT: CL/F
Please don't drop the unit; write it after the number.

Query CCOc1cc(N2CCC(O)CC2)ccc1Nc1ncc2c(n1)N(C)c1ccccc1C(=O)N2C yields CL/F of 37 mL/min/kg

====

MEASUREMENT NOTES: Half life in mouse at 1 mg/kg, iv
Type: ADME, organism-based
Design: dose 1 mg/kg, route intravenous
CONDITION DETAILS: in vivo
ASSAY READOUT: half-life (h)
Please give a number only; it is taken to be in h.

Value of measured half-life for the entry COc1cc(C(=O)N2CCC(N3CCCC3)CC2)ccc1Nc1ncc2c(n1)N(C)c1ccccc1C(=O)N2C : 2.62

====

MEASUREMENT NOTES: Tmax in mouse at 10 mg/kg, po
Assay type: ADME, organism-based
Set-up: dose 10 mg/kg, route oral
CONDITION DETAILS: in vivo
ASSAY READOUT: Tmax
# output: numeric value plus its unit

Documented Tmax of COc1cc(C(=O)N2CCC(N3CCCC3)CC2)ccc1Nc1ncc2c(n1)N(C)c1ccccc1C(=O)N2C : 2 h
